target: phosphorylation levels of ERK1/2 in AsPC-1 (homozygous KRAS-G12D) cells (Homo sapiens, UniProt P01116, G12D); assay: Cellular phospho-ERK assay in AsPC-1 cells (Alpha Screen), assay medium without fetal bovine serum; settings: phospho-ERK AlphaScreen, 18 h;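 further: signal taken as phospho-ERK over total ERK per well, both detected in one multiplex bead assay, EC50 from four-parameter logistic fit of dose-response curves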
Sequence (P01116 1-186 G12D): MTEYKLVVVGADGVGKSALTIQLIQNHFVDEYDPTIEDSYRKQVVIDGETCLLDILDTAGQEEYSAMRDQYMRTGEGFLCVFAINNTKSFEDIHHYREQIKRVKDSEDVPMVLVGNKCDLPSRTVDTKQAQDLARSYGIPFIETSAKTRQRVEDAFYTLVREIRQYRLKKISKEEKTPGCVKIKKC
Value Type: pEC50
Units for pEC50: none; it is -log10 of a concentration expressed in mol/L.

Query string: Any idea what pEC50 was measured for CON=C1C[C@@H](Cc2ccccc2)C(=O)N(C)[C@@H](C)C(=O)N[C@@H](Cc2cncnc2)C(=O)N[C@@H](CC2CC2)C(=O)N[C@@H](Cc2ccccc2F)C(=O)N[C@@H](CCC(C)(F)F)C(=O)N(C)[C@@H](Cc2ccccc2)C(=O)NCC23CC1(C2)C3 (single isomer, unassigned) [compound 177] ?
Result string: 5.47
